src = patent US20250232831A1

- assay_method_text: Evaluation of cell membrane permeability (permeation test, permeability coefficient Papp)
- Type: in vitro ADME
- test_settings: dog; MDCK II cells; 10 μmol/L sample in HBSS; 2 hours; 37° C.; apical to basal; read-out: Cell membrane permeability Papp
Where a SMILES comes first, the peptide text is derived from it. Bridges are numbered along the chain shown (N, C = ends). [ ]: non-standard residue; d: D form. The star is where a group is joined. NMeL = CN[C@@H](CC(C)C)C(=O)O; hCys = N[C@@H](CCS)C(=O)O; NMeA = CN[C@@H](C)C(=O)O; Piperidide = C1CCN(*)CC1
readout_kind: Papp A→B at 2 h, 10 μmol/L (×10⁻⁶ cm/s)

INSERT INTO measurements (compound, measured_number) VALUES
  ('CC(C)C[C@@H]1NC(=O)[C@H](CC(C)C)N(C)C(=O)CSCC[C@@H](C(=O)N2CCCCC2)NC(=O)[C@H](C)N(C)C(=O)[C@@H]2CCCN2C(=O)[C@H](CC(C)C)N(C)C(=O)[C@H](C)NC(=O)[C@H](C)N(C)C(=O)[C@H](CC(C)C)N(C)C(=O)[C@H](CC(C)C)N(C)C1=O [Compound 2] ({CH2CO}-[NMeL]L[NMeL][NMeL][NMeA]A[NMeL]P[NMeA][hCys]-Piperidide; thioether N-10)', 0.04);
